System: Human immunodeficiency virus 1
Test: Antiviral activity against HIV1
Type: functional, organism-based
EC50 by entry:
measure: EC50

INSERT INTO measurements (compound_smiles, measure, result) VALUES
  ('Cc1ccc(NCCCN)c([N+](=O)[O-])c1', 'EC50', '2.76 µM'),
  ('NCCCNCc1ccc(NCCCN)[n+]([O-])c1', 'EC50', '11.5 µM');

###

Test system: HepG2
Assay: Antiproliferative activity against human HepG2 cells assessed as inhibition of cell growth
Format: functional, cell-based
pIC50: −log10 of the molar value.
measure: pIC50

INSERT INTO measurements (compound_smiles, target_desc, measure, result) VALUES
  ('O=c1[nH]c2ccccc2c2nnc(C(F)(F)F)n12', 'HepG2', 'pIC50', 5.23),
  ('O=c1[nH]c2ccccc2c2nnc(-c3ccc(Cl)cc3)n12', 'HepG2', 'pIC50', 5.23);
